target: Histamine H3 receptor (Homo sapiens, UniProt Q9Y5N1); experiment: Binding affinity at human cloned Histamine H3 receptor
Sequence (Q9Y5N1 whole entry): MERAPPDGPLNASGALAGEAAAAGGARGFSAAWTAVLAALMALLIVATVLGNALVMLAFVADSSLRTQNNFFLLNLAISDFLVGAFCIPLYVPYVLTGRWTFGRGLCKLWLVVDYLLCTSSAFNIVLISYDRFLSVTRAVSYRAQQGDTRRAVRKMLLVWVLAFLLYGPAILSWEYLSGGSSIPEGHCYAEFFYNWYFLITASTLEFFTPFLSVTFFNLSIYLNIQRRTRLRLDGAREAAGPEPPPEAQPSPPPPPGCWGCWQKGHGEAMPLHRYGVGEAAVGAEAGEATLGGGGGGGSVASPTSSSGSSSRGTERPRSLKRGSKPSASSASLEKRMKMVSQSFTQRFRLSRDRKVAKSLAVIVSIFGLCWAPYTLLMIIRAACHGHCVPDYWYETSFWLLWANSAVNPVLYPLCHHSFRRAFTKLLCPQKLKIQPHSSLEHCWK
metric_name: pKi
Interpret pKi as the negative base-10 log of the concentration measured in mol/L.

Solved cases below.
{"columns": ["molecule", "target_or_system", "pKi"],
 "data": [
  ["CN(C)[C@@H]1CCN(CCCOc2ccc(-c3ccc(C#N)cc3)cc2)C1", "Histamine H3 receptor (Homo sapiens, UniProt Q9Y5N1)", 8.56],
  ["CC1CCCC(C)N1CCCOc1ccc(-c2ccc(C#N)cc2)cc1 (stereo not drawn)", "Histamine H3 receptor (Homo sapiens, UniProt Q9Y5N1)", 8.67]
]}

QUERY: Give pKi only, for C[C@@]1(O)CCN(CCCOc2ccc(-c3ccc(C#N)cc3)cc2)C1 , using Histamine H3 receptor (Homo sapiens, UniProt Q9Y5N1) data.
RESULT: 8.39
